Test system: Albino Swiss mice
Assay: Forced swim test
Conditions: 2.5 mg/kg i.p. 30 min before test; last 4 min of session
ENDPOINT LABEL: Immobility time (s) Mean ± SEM
Answer with a number only, understood to be in s.

Provide one value: measured Immobility time (s) Mean ± SEM of Cc1cccc(CN2C3CCC2CC(NC(=O)c2ccc4ccccc4n2)C3)c1 (centres unmarked) [Compound 12e]
172.14

Provide one value: measured Immobility time (s) Mean ± SEM of COc1cc(C(=O)NC2CC3CCC(C2)N3Cc2ccccc2C)nc2ccccc12 (centres unmarked) [Compound 12d]
113.44

Provide one value: measured Immobility time (s) Mean ± SEM of Cc1ccc(CN2C3CCC2CC(NC(=O)c2ccc4ccccc4n2)C3)cc1 (centres unmarked) [Compound 12i]
149.89

Provide one value: measured Immobility time (s) Mean ± SEM of Nc1ccccc1CN1C2CCC1CC(NC(=O)c1ccc3ccccc3c1)C2 (centres unmarked) [Compound 19a]
128.89

====

Target: serotonin 5-HT2A receptors (Rattus norvegicus, UniProt P14842)
Construct: from tissue; host or cells: rat brain tissues
Sequence (P14842 whole entry): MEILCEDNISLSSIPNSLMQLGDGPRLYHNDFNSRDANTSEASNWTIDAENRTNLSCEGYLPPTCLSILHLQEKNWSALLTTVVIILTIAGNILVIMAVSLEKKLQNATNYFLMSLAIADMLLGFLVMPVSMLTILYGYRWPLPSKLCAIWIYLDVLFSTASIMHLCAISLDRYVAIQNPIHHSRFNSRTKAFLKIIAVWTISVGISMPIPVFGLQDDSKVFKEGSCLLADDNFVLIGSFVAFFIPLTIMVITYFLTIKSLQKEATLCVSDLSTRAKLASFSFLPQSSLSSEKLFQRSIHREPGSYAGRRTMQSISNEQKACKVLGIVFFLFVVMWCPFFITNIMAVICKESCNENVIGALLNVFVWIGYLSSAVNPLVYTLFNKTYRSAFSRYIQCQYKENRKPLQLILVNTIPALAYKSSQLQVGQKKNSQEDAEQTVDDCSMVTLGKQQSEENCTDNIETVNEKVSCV
Assay: Radioligand binding assay, 5-HT2A receptors
Details: rat brain tissues; read-out: 5-HT2A IC50 [nM] ± SEM
ENDPOINT LABEL: IC50

Provide one value: measured IC50 of Cc1ccccc1CN1C2CCC1CC(NC(=O)c1cnc3ccccc3c1)C2 (stereo not drawn) [Compound 12b]
3780 nM

Provide one value: measured IC50 of Nc1ccc(CN2C3CCC2CC(NC(=O)c2ccc4ccccc4c2)C3)cc1 (stereo not drawn) [Compound 19c]
4580 nM

Provide one value: measured IC50 of O=C(NC1CC2CCC(C1)N2Cc1ccccn1)c1ccc2ccccc2n1 (stereo not drawn) [Compound 12l]
> 10000 nM

Provide one value: measured IC50 of Nc1cccc(CN2C3CCC2CC(NC(=O)c2ccc4ccccc4c2)C3)c1 (stereo not drawn) [Compound 19b]
766 nM

Provide one value: measured IC50 of COc1cc(C(=O)NC2CC3CCC(C2)N3Cc2ccncc2)nc2ccccc12 (stereo not drawn) [Compound 12w]
> 10000 nM

Provide one value: measured IC50 of Cc1ccccc1CN1C2CCC1CC(NC(=O)c1ccc3ccccc3n1)C2 (stereo not drawn) [Compound 12a]
> 10000 nM

Provide one value: measured IC50 of COc1cc(C(=O)NC2CC3CCC(C2)N3Cc2ccccn2)nc2ccccc12 (stereo not drawn) [Compound 12o]
> 10000 nM

Provide one value: measured IC50 of Cc1cccc(CN2C3CCC2CC(NC(=O)c2cnc4ccccc4c2)C3)c1 (stereo not drawn) [Compound 12f]
5290 nM

Provide one value: measured IC50 of O=C(NC1CC2CCC(C1)N2Cc1ccccn1)c1cnc2ccccc2c1 (stereo not drawn) [Compound 12m]
> 10000 nM

Provide one value: measured IC50 of COc1cc(C(=O)NC2CC3CCC(C2)N3Cc2ccccc2C)nc2ccccc12 (stereo not drawn) [Compound 12d]
> 10000 nM

Provide one value: measured IC50 of Cc1ccc(CN2C3CCC2CC(NC(=O)c2ccc4ncccc4c2)C3)cc1 (stereo not drawn) [Compound 12k]
> 10000 nM

Provide one value: measured IC50 of Cc1ccc(CN2C3CCC2CC(NC(=O)c2ccc4ccccc4n2)C3)cc1 (stereo not drawn) [Compound 12i]
> 10000 nM

Provide one value: measured IC50 of O=C(NC1CC2CCC(C1)N2Cc1ccncc1)c1ccc2ccccc2n1 (stereo not drawn) [Compound 12t]
> 10000 nM

Provide one value: measured IC50 of O=C(NC1CC2CCC(C1)N2Cc1cccnc1)c1ccc2ccccc2n1 (stereo not drawn) [Compound 12p]
> 10000 nM

Provide one value: measured IC50 of Cc1ccccc1CN1C2CCC1CC(NC(=O)c1ccc3ncccc3c1)C2 (stereo not drawn) [Compound 12c]
> 10000 nM

Provide one value: measured IC50 of Cc1ccc(CN2C3CCC2CC(NC(=O)c2cnc4ccccc4c2)C3)cc1 (stereo not drawn) [Compound 12j]
> 10000 nM

Provide one value: measured IC50 of Nc1ccccc1CN1C2CCC1CC(NC(=O)c1ccc3ccccc3c1)C2 (stereo not drawn) [Compound 19a]
173 nM

Provide one value: measured IC50 of COc1cc(C(=O)NC2CC3CCC(C2)N3Cc2cccnc2)nc2ccccc12 (stereo not drawn) [Compound 12s]
> 10000 nM
